Biological target: Monoacylglycerol lipase ABHD6 (Mus musculus)
Sequence (Q8R2Y0 whole entry): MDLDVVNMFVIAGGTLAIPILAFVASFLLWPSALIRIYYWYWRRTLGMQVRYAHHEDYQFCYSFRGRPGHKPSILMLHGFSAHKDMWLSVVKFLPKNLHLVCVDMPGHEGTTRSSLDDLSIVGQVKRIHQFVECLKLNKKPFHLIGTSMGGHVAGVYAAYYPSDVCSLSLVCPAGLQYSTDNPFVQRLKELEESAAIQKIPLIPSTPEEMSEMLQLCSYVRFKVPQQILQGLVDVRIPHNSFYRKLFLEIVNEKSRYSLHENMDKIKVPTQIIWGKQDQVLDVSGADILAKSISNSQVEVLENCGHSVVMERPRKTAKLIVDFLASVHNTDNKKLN
Measurement kind: pIC50
Just so you know, pIC50 here is -log10 of the concentration in molar units; reply with that number alone.

# input Give its pIC50 value. Item: [N-]=[N+]=NCCCC[C@H](NC(=O)CCCCCNC(=O)c1ccc(CN2CCN(C(=O)n3ccnn3)CC2)cc1)C(N)=O
# output 5.13
